tested on: 48V54V82S; assay: microbe, parasite or virus in culture; design: species or system HIV-1; conditions: Human immunodeficiency virus 1, read-out: Cell-based assay (MT-4) EC50 48V54V82S
Known EC50 of a selection of compounds

[
  {
    "compound": "CCOP(=O)(COc1ccc(CC2C(O)C(O)C(Cc3ccc(OC)cc3)N(Cc3ccc(O)cc3)C(=O)N2Cc2ccc(O)cc2)cc1)OCC (stereo not drawn)",
    "measured.target": "48V54V82S",
    "unit": "nM",
    "EC50": 106
  },
  {
    "compound": "CCOP(=O)(COc1ccc(CC2C(O)C(O)C(Cc3ccc(OC)cc3)N(Cc3cccnc3)C(=O)N2Cc2cccnc2)cc1)OCC (stereo not drawn)",
    "measured.target": "48V54V82S",
    "unit": "nM",
    "EC50": 970
  },
  {
    "compound": "CCCCN1C(=O)N(Cc2ccc3[nH]nc(N)c3c2)C(Cc2ccccc2)C(O)C(O)C1Cc1ccccc1 (stereo not drawn)",
    "measured.target": "48V54V82S",
    "unit": "nM",
    "EC50": 30
  }
]

---

molecular target: recombinant HIV-1 protease (Human immunodeficiency virus type 1 group M subtype B, UniProt P04585); assay: biochemical; format: biochemical; details: read-out: Enzymatic assay Ki
quantity.kind: Ki (nM)

[
  {
    "compound": "O=C1N(Cc2ccccc2)[C@H](Cc2ccccc2)[C@H](O)[C@@H](O)[C@@H](Cc2ccccc2)N1Cc1ccc2[nH]nc(O)c2c1",
    "unit": "nM",
    "qualifying.sign": "=",
    "observed.result": 0.42
  },
  {
    "compound": "CCOC(=O)C(C)OP(=O)(CCCNC(=O)c1cccc(CN2C(=O)N(Cc3ccc4[nH]nc(N)c4c3)[C@H](Cc3ccccc3)[C@H](O)[C@@H](O)[C@H]2Cc2ccccc2)c1)Oc1ccccc1 (stereo partly drawn)",
    "unit": "nM",
    "qualifying.sign": "=",
    "observed.result": 0.112
  },
  {
    "compound": "COc1ccc(CN2C(=O)N(Cc3ccc(O)cc3)[C@H](Cc3ccccc3)[C@H](O)[C@@H](O)[C@H]2Cc2ccccc2)cc1C#N",
    "unit": "nM",
    "qualifying.sign": ">",
    "observed.result": 5
  },
  {
    "compound": "CCOC(=O)C(C)OP(=O)(COc1ccc(C[C@@H]2[C@H](O)[C@@H](O)[C@@H](Cc3ccccc3)N(Cc3ccccc3)C(=O)N2Cc2ccccc2)cc1)Oc1ccccc1 (stereo partly drawn)",
    "unit": "nM",
    "qualifying.sign": "=",
    "observed.result": 0.12
  },
  {
    "compound": "N#Cc1cc(CN2C(=O)N(Cc3cccc(OCc4ccccc4)c3)[C@H](Cc3ccccc3)[C@H](O)[C@@H](O)[C@H]2Cc2ccccc2)ccc1F",
    "unit": "nM",
    "qualifying.sign": "=",
    "observed.result": 1.43
  },
  {
    "compound": "COc1ccc(CN2C(=O)N(Cc3ccc(OCc4ccccc4)cc3)[C@H](Cc3ccccc3)[C@H](O)[C@@H](O)[C@H]2Cc2ccccc2)cc1C#N",
    "unit": "nM",
    "qualifying.sign": ">",
    "observed.result": 5
  }
]

---

molecular target: recombinant HIV-1 protease (Human immunodeficiency virus type 1 group M subtype B); experiment: biochemical; assay type: biochemical; conditions: Ki
quantity.kind: Ki

[
  {
    "compound": "CC(C)CN(CC(O)C(Cc1ccccc1)NC(=O)OC1COC2OCCC12)S(=O)(=O)c1ccc(OCP(=O)(O)Oc2ccccc2)cc1 (stereo not shown)",
    "observed.result": "10 to 100 pM"
  }
]

---

molecular target: GS-7340 Ester Hydrolase (Homo sapiens, UniProt P10619); construct: from tissue; host or cells: human peripheral blood mononuclear cells (extract and column pools); test: biochemical
Sequence (P10619 29-326 limits assumed): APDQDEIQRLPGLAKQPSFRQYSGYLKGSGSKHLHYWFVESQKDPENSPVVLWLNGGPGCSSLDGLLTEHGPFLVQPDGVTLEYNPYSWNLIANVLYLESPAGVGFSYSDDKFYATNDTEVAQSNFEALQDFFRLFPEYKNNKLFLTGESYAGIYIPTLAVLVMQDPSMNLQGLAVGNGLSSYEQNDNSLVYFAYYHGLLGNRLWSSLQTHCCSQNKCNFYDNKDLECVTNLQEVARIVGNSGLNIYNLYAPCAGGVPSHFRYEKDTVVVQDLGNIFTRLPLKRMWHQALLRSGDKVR
Sequence (P10619 327-480 limits assumed): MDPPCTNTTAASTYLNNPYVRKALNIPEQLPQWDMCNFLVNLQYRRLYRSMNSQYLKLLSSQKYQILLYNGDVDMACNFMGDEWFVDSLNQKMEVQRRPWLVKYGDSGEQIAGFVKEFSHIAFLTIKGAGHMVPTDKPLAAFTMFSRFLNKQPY

[
  {
    "molecule": "O=c1oc(Cl)c(Cl)c2ccccc12 [3,4-DCI, 3,4 dichloroisocoumarin, reference compound]",
    "unit": "µM",
    "IC50": 4
  }
]

---

Known EC50 of a selection of compounds
test system: 48V82A90M; assay: microbe, parasite or virus in culture; parameters: species or system HIV-1; conditions: Human immunodeficiency virus 1, read-out: Cell-based assay (MT-4) EC50 48V82A90M
quantity.kind: EC50 (nM)

[
  {
    "compound": "CCCCN1C(=O)N(Cc2ccc3[nH]nc(N)c3c2)C(Cc2ccccc2)C(O)C(O)C1Cc1ccccc1 (stereo not drawn)",
    "measured.target": "48V82A90M",
    "observed.result": 22
  },
  {
    "compound": "CCOP(=O)(COc1ccc(CC2C(O)C(O)C(Cc3ccc(OC)cc3)N(Cc3ccc(O)cc3)C(=O)N2Cc2ccc(O)cc2)cc1)OCC (stereo not drawn)",
    "measured.target": "48V82A90M",
    "observed.result": 48
  },
  {
    "compound": "CCOP(=O)(COc1ccc(CC2C(O)C(O)C(Cc3ccc(OC)cc3)N(Cc3cccnc3)C(=O)N2Cc2cccnc2)cc1)OCC (stereo not drawn)",
    "measured.target": "48V82A90M",
    "observed.result": 480
  }
]

---

test system: 48V54V82S; design: species or system HIV-1; details: MT-4, 48V54V82S; read-out: Cell-based assay (MT-4) EC50/nM 48V54V82S
Known EC50 of a selection of compounds
quantity.kind: EC50 (nM)

[
  {
    "sample.smiles": "CCOP(=O)(CNC(=O)Oc1ccc(C[C@@H]2[C@H](O)[C@@H](O)[C@@H](Cc3ccc(OC)cc3)N(Cc3cccc(N)c3)C(=O)N2Cc2cccc(N)c2)cc1)OCC",
    "unit": "nM",
    "observed.result": 203
  },
  {
    "sample.smiles": "CCOP(=O)(CCNC(=O)Oc1ccc(C[C@@H]2[C@H](O)[C@@H](O)[C@@H](Cc3ccc(OC)cc3)N(Cc3cccc(N)c3)C(=O)N2Cc2cccc(N)c2)cc1)OCC",
    "unit": "nM",
    "observed.result": 214
  }
]

---

tested on: WT HIV-1; experiment: microbe, parasite or virus in culture; type: cell-based; conditions: MT-4, WT; read-out: Cell-based assay (MT-4) EC50/nM WT
Known EC50 of a selection of compounds

[
  {
    "compound": "COc1ccc(CN2C(=O)N(Cc3ccc(O)cc3)[C@H](Cc3ccccc3)[C@H](O)[C@@H](O)[C@H]2Cc2ccccc2)cc1C#N",
    "unit": "nM",
    "EC50": 2010
  },
  {
    "compound": "COc1ccc(CN2C(=O)N(Cc3ccc(OCc4ccccc4)cc3)[C@H](Cc3ccccc3)[C@H](O)[C@@H](O)[C@H]2Cc2ccccc2)cc1C#N",
    "unit": "nM",
    "EC50": 5950
  },
  {
    "compound": "O=C1N(Cc2ccccc2)[C@H](Cc2ccccc2)[C@H](O)[C@@H](O)[C@@H](Cc2ccccc2)N1Cc1ccc2[nH]ncc2c1 [drawing 870]",
    "unit": "nM",
    "EC50": 193
  },
  {
    "compound": "CCOC(=O)C(C)NP(=O)(COc1ccc(C[C@@H]2[C@H](O)[C@@H](O)[C@@H](Cc3ccccc3)N(Cc3ccccc3)C(=O)N2Cc2ccccc2)cc1)Oc1ccccc1 (stereo partly drawn)",
    "unit": "nM",
    "EC50": 310
  },
  {
    "compound": "CCOC(=O)C(C)OP(=O)(COc1ccc(C[C@@H]2[C@H](O)[C@@H](O)[C@@H](Cc3ccccc3)N(Cc3ccccc3)C(=O)N2Cc2ccccc2)cc1)Oc1ccccc1 (stereo partly drawn)",
    "unit": "nM",
    "EC50": 1730
  },
  {
    "compound": "O=C1N(Cc2ccccc2)[C@H](Cc2ccccc2)[C@H](O)[C@@H](O)[C@@H](Cc2ccc(O)cc2)N1Cc1ccccc1",
    "unit": "nM",
    "EC50": 1260
  }
]

---

Known Ki of a selection of molecules
biological target: recombinant HIV-1 protease (Human immunodeficiency virus type 1 group M subtype B, UniProt P04585); experiment: biochemical; assay type: biochemical; details: read-out: Ki
quantity.kind: Ki

[
  {
    "molecule": "Cc1ccc(C(=O)N[C@@H](Cc2ccc(OCP(=O)(Oc3ccccc3)Oc3ccccc3)cc2)[C@H](O)CN(CC(C)C)S(=O)(=O)c2ccc(N)cc2)cc1O",
    "observed.result": "0.1 to 1 nM"
  },
  {
    "molecule": "COc1ccc(S(=O)(=O)N(CC(C)C)CC(O)C(CN(C)Cc2ccc(P(=O)(O)OC(C)C(=O)O)cc2)NC(=O)OC2COC3OCCC23)cc1 (stereo not shown)",
    "observed.result": "> 1 nM"
  },
  {
    "molecule": "COc1ccc(S(=O)(=O)N(CC(C)C)CC(O)C(CC2=CCN(CP(=O)(O)OC(C)C(=O)O)CC2)NC(=O)OC2COC3OCCC23)cc1 (stereo not shown)",
    "observed.result": "> 1 nM"
  },
  {
    "molecule": "CC(C)CN(CC(O)C(Cc1ccc(OCP(=O)(O)OC(C)C(=O)O)cc1)NC(=O)OC1COC2OCCC12)S(=O)(=O)c1ccc(CN2CCOCC2)cc1 (stereo not shown)",
    "observed.result": "> 1 nM"
  },
  {
    "molecule": "CCOP(=O)(Cc1ccc(CC(NC(=O)OC2COC3OCCC23)C(O)CN(CC(C)C)S(=O)(=O)c2ccc(OC)cc2)cc1)OCC (stereo not shown) [drawing 654 R1=OE R2=OE]",
    "observed.result": "< 0.01 nM"
  },
  {
    "molecule": "Cc1cccc(C)c1OCC(=O)N[C@@H](Cc1ccc(OCP(=O)(Oc2ccccc2)Oc2ccccc2)cc1)[C@H](O)CN(CC(C)C)S(=O)(=O)c1ccc(N)cc1",
    "observed.result": "0.1 to 1 nM"
  },
  {
    "molecule": "CC(C)CN(CC(O)C(Cc1ccc(OCP(=O)(O)OC(C)C(=O)O)cc1)NC(=O)OC1COC2OCCC12)S(=O)(=O)c1ccc(CO)cc1 (stereo not shown)",
    "observed.result": "0.01 to 0.1 nM"
  }
]
